Target: Cyclin-dependent kinases regulatory subunit 1/S-phase kinase-associated protein 2 (Homo sapiens, UniProt P61024+Q13309)
Sequence (P61024 2-79 limits assumed): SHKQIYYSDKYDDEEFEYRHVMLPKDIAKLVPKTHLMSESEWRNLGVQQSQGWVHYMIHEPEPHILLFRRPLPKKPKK
Sequence (Q13309 whole entry partner): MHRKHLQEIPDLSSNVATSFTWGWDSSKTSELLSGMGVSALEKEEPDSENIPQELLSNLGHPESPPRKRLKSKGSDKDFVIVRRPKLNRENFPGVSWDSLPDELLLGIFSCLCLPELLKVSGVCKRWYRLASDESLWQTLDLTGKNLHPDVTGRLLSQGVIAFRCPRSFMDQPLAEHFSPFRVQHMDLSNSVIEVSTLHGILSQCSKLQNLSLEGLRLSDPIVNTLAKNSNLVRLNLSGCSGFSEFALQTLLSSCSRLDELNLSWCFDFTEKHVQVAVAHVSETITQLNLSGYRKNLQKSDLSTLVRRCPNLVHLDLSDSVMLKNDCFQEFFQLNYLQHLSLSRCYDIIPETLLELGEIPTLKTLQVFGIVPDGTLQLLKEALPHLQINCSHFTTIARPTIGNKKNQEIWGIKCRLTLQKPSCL
Assay: Inhibition of Cks1-Skp2 (unknown origin) interaction assessed as increase in p27-GFP level by ELISA
Assay type: protein assay
Active and inactive are the calls of the source. No cut-off for these calls is given here.
Test Readout: Activity

Worked cases, Activity given:
q: Find the recorded Activity belonging to CS(=O)(=O)Nc1ccc(-c2ccncc2)c2cccnc12 and report it.
a: inactive

q: # Activity lookup, item COc1ccc(S(=O)(=O)Nc2ccc(-c3cccnc3)c3cccnc23)cc1
a: Active

q: If you can, please state the reported Activity value of O=S(=O)(Nc1ccc(-c2ccncc2)c2cccnc12)C1CC1 .
a: inactive

q: Which measured Activity value corresponds to Cc1ccc(S(=O)(=O)Nc2ccc(-c3cc4ccccc4s3)c3cccnc23)cc1 ?
a: Active

q: Item under review: CS(=O)(=O)Nc1ccc(-c2cccnc2)c2cccnc12 . Reported Activity?
a: inactive

***
q: # lookup: Activity of Cc1ccc(S(=O)(=O)Nc2ccc(N3CCN(C)CC3)c3cccnc23)cc1
a: inactive

q: Would you kindly share the measured Activity for COc1ccc(Oc2cc(NS(=O)(=O)c3ccc(C)cc3)c3ncccc3c2)cc1 ?
a: inactive

q: Given O=S(=O)(Nc1ccc(-c2ccncc2)c2cccnc12)c1cccnc1 , state its recorded Activity.
a: inactive

q: // Activity lookup, key: Cc1ccc(S(=O)(=O)Nc2ccc(N3CCC(Cc4ccccc4)CC3)c3cccnc23)cc1
a: inactive

q: Which Activity value belongs to O=S(=O)(Nc1ccc(-c2cccnc2)c2cccnc12)c1cccc(C(F)(F)F)c1 ?
a: Active

q: What value of Activity has been reported for the following molecule? Cc1ccc(S(=O)(=O)Nc2cccc3cccnc23)cc1
a: Active

q: # query: Activity of entry Cc1ccc(S(=O)(=O)Nc2ccc(N3CCOCC3)c3cccnc23)cc1
a: inactive

q: May I ask what Activity has been recorded for Cc1ccc(S(=O)(=O)Nc2cc(Oc3cc(F)cc(F)c3)cc3cccnc23)cc1 ?
a: Active

q: Look at this molecule and give its reported Activity. O=S(=O)(Nc1ccc(-c2ccccc2)c2cccnc12)c1cccnc1
a: Active

q: # get_value(readout='Activity', item= CS(=O)(=O)Nc1ccc(-c2ccccc2)c2cccnc12 )
a: Active

q: Query: Activity; subject: Cc1ccc(S(=O)(=O)Nc2ccc(-c3ccco3)c3cccnc23)cc1
a: Active

q: Dear colleague, I am looking for the recorded Activity of the following molecule: COc1ccc(S(=O)(=O)Nc2ccc(-c3ccccc3)c3cccnc23)cc1
a: Active

q: Give the measured Activity of O=S(=O)(Nc1ccc(-c2ccccc2)c2cccnc12)C1CC1 .
a: inactive

* * *

Biological target: Cyclin-dependent kinases regulatory subunit 1/S-phase kinase-associated protein 2 (Homo sapiens, UniProt P61024+Q13309)
Assay: Inhibition of Cks1-Skp2 (unknown origin) interaction assessed as increase in p27-GFP level by western blot analysis
Type: protein assay
Active and inactive are the calls of the source. No cut-off for these calls is given here.
I would appreciate it if you answered using one of these outcomes: active, inactive

Sample answers from the record:
q: Given Cc1ccc(S(=O)(=O)Nc2ccc(-c3cc4ccccc4s3)c3cccnc23)cc1 , state the outcome it received in this test.
a: active

q: Hey, what did the test say about Cc1ccc(S(=O)(=O)Nc2ccc(-c3cccnc3)c3cccnc23)cc1 ?
a: active

q: Each compound tested received a call. Report the one for COc1ccc(S(=O)(=O)Nc2ccc(-c3cccnc3)c3cccnc23)cc1 .
a: active

***
q: Test call for this compound, please: O=S(=O)(Nc1ccc(-c2ccncc2)c2cccnc12)C1CC1
a: inactive

q: Identify the outcome logged in this assay for the compound shown: Cc1ccc(S(=O)(=O)Nc2ccc(-c3ccccc3)c3cccnc23)cc1
a: active

q: Record lookup: outcome of this test for O=S(=O)(Nc1ccc(-c2ccncc2)c2cccnc12)c1cccnc1 ?
a: inactive
